These entries and their values trace back to patent US20250057791A1.

- System: A. gambiae mouthpart ATP-sensitive receptor
- method description: Electrophysiological response to 200 pM ATP with PR antagonist admixed
- Assay type: cell-based, Anopheles gambiae
- measurement setup: increasing doses admixed to 200 pM ATP
Residues, ends and D or L forms follow the SMILES beside them.
Listed below: ID95 in nM (±s.e.m.) values for each entry.
metric name: ID95 in nM (±s.e.m.) (nM)

molecule	subject of test	unit label	readout value
Cc1nc(/N=N/c2ccc(S(=O)(=O)O)cc2S(=O)(=O)O)c(COP(=O)(O)O)c(C=O)c1O	A. gambiae mouthpart ATP-sensitive receptor	nM	12.66
Cc1nc(C)c(C)nc1C	A. gambiae mouthpart ATP-sensitive receptor	nM	27.50
Cc1ccc(C(=O)Nc2ccc(S(=O)(=O)O)c3cc(S(=O)(=O)O)cc(S(=O)(=O)O)c23)cc1NC(=O)c1cccc(NC(=O)Nc2cccc(C(=O)Nc3cc(C(=O)Nc4ccc(S(=O)(=O)O)c5cc(S(=O)(=O)O)cc(S(=O)(=O)O)c45)ccc3C)c2)c1	A. gambiae mouthpart ATP-sensitive receptor	nM	1.15
CC(C)C[C@H](N)C(=O)N[C@H](C(=O)N[C@H](C(=O)N[C@@H](Cc1ccc(O)cc1)C(=O)N1CCC[C@H]1C(=O)N[C@@H](Cc1c[nH]c2ccccc12)C(=O)N[C@H](C(=O)O)[C@@H](C)O)C(C)C)C(C)C [Spinorphin] (H-LVVYPWT-OH)	A. gambiae mouthpart ATP-sensitive receptor	nM	0.43
Nc1c(S(=O)(=O)O)cc(Nc2ccc(Nc3nc(Cl)nc(Nc4cccc(S(=O)(=O)O)c4)n3)c(S(=O)(=O)O)c2)c2c1C(=O)c1ccccc1C2=O	A. gambiae mouthpart ATP-sensitive receptor	nM	113.02

====

- Test system: A. gambiae labellum sensilla (purine-sensitive cell)
- method description: Tip recording of action potentials from A. gambiae labellum sensilla in response to agonists
- Format: cell-based, Anopheles gambiae
- measurement setup: spike frequency as a function of dose
metric name: ED95

molecule	metric name	readout value
Nc1ncnc2c1ncn2[C@@H]1O[C@H](COP(=O)(O)O)[C@@H](O)[C@H]1O [AMP, Adenosine 5′-monophosphate]	ED95	~200 pM
Nc1ncnc2c1ncn2C1OC(COP(=O)(O)CP(=O)(O)OP(=O)(O)O)C(O)C1O (stereo not drawn) [AMP-CPP, α,β-Methyleneadenosine-5′-triphosphate]	ED95	50 pM
Nc1ncnc2c1ncn2[C@@H]1O[C@H](CO)[C@@H](O)[C@H]1O	ED95	~200 pM
Nc1ncnc2c1ncn2[C@@H]1O[C@H](COP(=O)(O)OP(=O)(O)OP(=O)(O)O)[C@@H](O)[C@H]1O [ATP, Adenosine 5′-triphosphate]	ED95	~200 pM

====

- Test system: A. gambiae labellum sensilla (purine-sensitive cell)
- method description: Tip recording of action potentials from A. gambiae labellum sensilla in response to agonists
- Format: cell-based, Anopheles gambiae
- measurement setup: spike frequency as a function of dose
metric name: dose at which the unsurmountable asymptote is reached (pM)

molecule	readout value
Nc1ncnc2c1ncn2[C@@H]1O[C@H](CO)[C@@H](O)[C@H]1O	250
Nc1ncnc2c1ncn2[C@@H]1O[C@H](COP(=O)(O)OP(=O)(O)OP(=O)(O)O)[C@@H](O)[C@H]1O [ATP, Adenosine 5′-triphosphate]	250
Nc1ncnc2c1ncn2[C@@H]1O[C@H](COP(=O)(O)O)[C@@H](O)[C@H]1O [AMP, Adenosine 5′-monophosphate]	250
Nc1ncnc2c1ncn2C1OC(COP(=O)(O)CP(=O)(O)OP(=O)(O)O)C(O)C1O (stereo not drawn) [AMP-CPP, α,β-Methyleneadenosine-5′-triphosphate]	80
